System: Human Basophils
Assay: Histamine Release from Human Basophils (HHB)
Format: cell-based
Details: Homo sapiens; 33 μM cpd.; antigen challenge; read-out: HHB (antigen), percent inhibition of histamine release
assay.endpoint: inhibition at 33 µM (%)
# output: bare number, implied unit %

Previously resolved entries follow.
1) Cc1ccc(CCc2ccc(NC(=O)c3ccccc3-c3ccccc3C(=O)O)cc2)cc1	60
2) COc1ccc(CCc2ccc(NC(=O)c3ccccc3-c3ccccc3C(=O)O)cc2)cc1OC	-5
3) O=C(O)c1ccccc1-c1ccccc1C(=O)Nc1cccc(CCc2ccc(Cl)c(Cl)c2)c1	101
4) O=C(O)c1ccccc1-c1ccccc1C(=O)Nc1ccc(CCc2ccc(Cl)c(Cl)c2)cc1	94
5) CN(C(=O)c1ccccc1-c1ccccc1C(=O)O)c1ccc(CCc2ccc(Cl)c(Cl)c2)cc1	72

Consider now this further molecule.
Would you kindly share the measured inhibition at 33 µM for CC(C)(C)c1cc(CCc2ccc(NC(=O)c3ccccc3-c3ccccc3C(=O)O)cc2)cc(C(C)(C)C)c1O ?
41

// data source = patent US4786755A
